B1: TPR t1 (parent)
chain: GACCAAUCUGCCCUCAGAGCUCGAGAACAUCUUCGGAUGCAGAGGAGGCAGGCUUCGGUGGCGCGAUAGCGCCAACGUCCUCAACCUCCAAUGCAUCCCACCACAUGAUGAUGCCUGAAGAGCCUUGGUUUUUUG

- Variants of: B1
- Assay explanation: polymerase ribozyme fitness, log enrichment relative to wild type (log ratio); higher = more active; in vitro selection for triplet polymerase activity
Listed variants paired with reported polymerase ribozyme fitness (log ratio)

Before answering, review these 8 worked examples.
C28A G93C G110A	-0.645
C8A A111U	-1.79
G42C G45U G48U U131G	-3.09
A2U C40U C115A U133G	-2.75
G52C	-0.632
G48C C79U C101A	-1.57
C11G C28G A105U G110U	-6.33
A24G G69A	-4.71

Query: Quickly give me recorded polymerase ribozyme fitness (log ratio) for U112C U132A
Result: 1.65

Query: Quickly give me recorded polymerase ribozyme fitness (log ratio) for C115A C124U
Result: 0.564

Query: Quickly give me recorded polymerase ribozyme fitness (log ratio) for C11U A24G G47U G77U U116C
Result: -7.91

Provenance of the data: the RNAGym collection of RNA variant scans (doi:10.1073/pnas.2313332121)
